target: recombinant soluble homotrimeric HA of A/Vietnam/1203/04 (H5N1) (Influenza A virus A/VietNam/1203/2004(H5N1)); assay: trimeric HA microarray, transfection supernatant set 4; conditions: remark: other sources report otherwise
quantity.name: Trimeric HA Binding: RLU
Field: value (include unit after the number)

Query: For TCN-534 (5249_B02) (antibody, V domains shown) VH: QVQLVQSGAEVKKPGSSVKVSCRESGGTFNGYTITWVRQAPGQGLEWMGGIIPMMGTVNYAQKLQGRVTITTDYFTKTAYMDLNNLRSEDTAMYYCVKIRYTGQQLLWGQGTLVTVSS VL: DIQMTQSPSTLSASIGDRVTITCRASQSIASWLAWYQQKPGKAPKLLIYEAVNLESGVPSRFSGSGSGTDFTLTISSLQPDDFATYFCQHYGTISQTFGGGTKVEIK , what is its reported Trimeric HA Binding: RLU?
Reply: 23700 RLU
